# MIC per entry
# System: Salmonella paratyphi
# protocolSummary: Antibacterial activity against Salmonella paratyphi ATCC 12176 after overnight incubation by twofold agar dilution method
# Format: functional, Salmonella enterica subsp. enterica serovar Paratyphi A
# assayContext: Salmonella enterica
measuredQuantity: MIC (µg/mL)

[[record]]
compound = "Cc1nnc(SCC2=C(C(=O)O)N3C(=O)[C@@H](NC(=O)Cn4cnnn4)[C@H]3SC2)s1"
measuredquantity = "MIC"
experimentalresult = 0.8

[[record]]
compound = "Cc1nnc(SCC2=C(C(=O)[O-])N3C(=O)[C@@H](NC(=O)C[S+]([O-])CC(F)(F)F)[C@H]3SC2)s1.[Na+] (some centres undefined)"
measuredquantity = "MIC"
experimentalresult = 1.6

[[record]]
compound = "CC(=O)OCC1=C(C(=O)[O-])N2C(=O)[C@@H](NC(=O)C[S+]([O-])CC(F)(F)F)[C@H]2SC1.[Na+] (some centres undefined)"
measuredquantity = "MIC"
experimentalresult = 1.6

[[record]]
compound = "Cc1nnc(SCC2=C(C(=O)O)N3C(=O)[C@@H](NC(=O)CS(=O)(=O)CC#N)[C@H]3SC2)s1"
measuredquantity = "MIC"
experimentalresult = 6.3


* * *

# Tested on: Shigella flexneri
# protocolSummary: Antibacterial activity against Shigella paradysenteriae HH 117 after overnight incubation by twofold agar dilution method
# Type: functional
The following compounds are shown together with reported MIC values.
measuredQuantity: MIC (µg/mL)

[[record]]
compound = "CC(=O)OCC1=C(C(=O)[O-])N2C(=O)[C@@H](NC(=O)CSCC#N)[C@H]2SC1.[Na+]"
displayunit = "µg/mL"
experimentalresult = 6.3

[[record]]
compound = "Cc1nnc(SCC2=C(C(=O)[O-])N3C(=O)[C@@H](NC(=O)C[S+]([O-])CC#N)[C@H]3SC2)s1.[Na+] (stereo not given in full)"
displayunit = "µg/mL"
experimentalresult = 0.8

[[record]]
compound = "CC(=O)OCC1=C(C(=O)[O-])N2C(=O)[C@@H](NC(=O)CS(=O)(=O)CC(F)(F)F)[C@H]2SC1.[Na+]"
displayunit = "µg/mL"
experimentalresult = 12.5

[[record]]
compound = "CC(=O)OCC1=C(C(=O)[O-])N2C(=O)[C@@H](NC(=O)C[S+]([O-])CC(F)(F)F)[C@H]2SC1.[Na+] (stereo not given in full)"
displayunit = "µg/mL"
experimentalresult = 3.1

[[record]]
compound = "CC(=O)OCC1=C(C(=O)O)N2C(=O)[C@@H](NC(=O)CS(=O)(=O)CC#N)[C@H]2SC1"
displayunit = "µg/mL"
experimentalresult = 6.3

